Molecular target: Abl (Homo sapiens)
Sequence (P00519 242-493 limits assumed): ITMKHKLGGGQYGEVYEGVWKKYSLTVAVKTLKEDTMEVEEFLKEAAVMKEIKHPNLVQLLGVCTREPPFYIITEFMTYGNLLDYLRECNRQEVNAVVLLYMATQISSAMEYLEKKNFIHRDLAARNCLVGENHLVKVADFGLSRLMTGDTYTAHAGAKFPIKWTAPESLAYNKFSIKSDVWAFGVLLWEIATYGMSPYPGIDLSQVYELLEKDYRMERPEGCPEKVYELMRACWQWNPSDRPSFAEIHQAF
Experiment: In vitro kinase assay (32P peptide phosphorylation), WT Abl
Format: biochemical
Details: Table 1b; read-out: IC50 WT Abl
RECORDED_ENDPOINT: IC50

Use the examples below as a reference point.
[[record]]
molecule = "CC(C)n1nc(-c2ccc(NC(=O)Nc3cccc(C(F)(F)F)c3)cc2)c2c(NC(=O)C3CCCC3)ncnc21 [AD62]"
recorded_endpoint = "IC50"
measurement = "< 1000 nM"

[[record]]
molecule = "Nc1ncnc2c1c(-c1ccc(NC(=O)Nc3cccc(C(F)(F)F)c3)cc1)nn2[C@H]1CCOC1 [AD66]"
recorded_endpoint = "IC50"
measurement = "< 1000 nM"

[[record]]
molecule = "Nc1ncnc2c1c(-c1ccc(NC(=O)c3cccc(C(F)(F)F)c3)cc1)nn2[C@H]1CCOC1 [AD67]"
recorded_endpoint = "IC50"
measurement = "1000 to 5000 nM"

[[record]]
molecule = "CC(C)n1nc(-c2ccc(NC(=O)Nc3ccccc3)cc2)c2c(N)ncnc21 [AD58]"
recorded_endpoint = "IC50"
measurement = "< 1000 nM"

[[record]]
molecule = "CC(C)n1nc(-c2ccc(NC(=O)Nc3cccc(C(F)(F)F)c3)cc2)c2c(NC(=O)C3CC3)ncnc21 [AD61]"
recorded_endpoint = "IC50"
measurement = "< 1000 nM"

[[record]]
molecule = "CC(C)n1nc(-c2ccc(NC(=O)Nc3cccc(C(F)(F)F)c3)cc2)c2c(NC(=O)c3ccc(C(C)(C)C)cc3)ncnc21 [AD63]"
recorded_endpoint = "IC50"
measurement = "> 5000 nM"

[[record]]
molecule = "Cn1nc(-c2ccc(NC(=O)Nc3cccc(C(F)(F)F)c3)cc2)c2c(N)ncnc21 [AD59]"
recorded_endpoint = "IC50"
measurement = "< 1000 nM"

[[record]]
molecule = "Nc1ncnc2c1c(-c1ccc(NC(=O)c3cccc(C(F)(F)F)c3)cc1)nn2[C@H]1CCNC1 [AD70]"
recorded_endpoint = "IC50"
measurement = "> 5000 nM"

[[record]]
molecule = "Nc1ncnc2c1c(-c1ccc(NC(=O)c3cccc(C(F)(F)F)c3)cc1)nn2[C@@H]1CCOC1 [AD68]"
recorded_endpoint = "IC50"
measurement = "> 5000 nM"

[[record]]
molecule = "Nc1ncnc2c1c(-c1ccc(NC(=O)Nc3cccc(C(F)(F)F)c3)cc1)nn2[C@@H]1CCOC1 [AD69]"
recorded_endpoint = "IC50"
measurement = "> 5000 nM"


Entry Nc1ncnc2c1c(-c1ccc(NC(=O)Nc3cccc(C(F)(F)F)c3)cc1)nn2C1CCCC1 [AD60] : reported IC50 = ?
< 1000 nM

Also Nc1ncnc2c1c(-c1ccc(NC(=O)c3cccc(C(F)(F)F)c3)cc1)nn2[C@@H]1CCNC1 [AD72] , if possible.
> 5000 nM

Same question for Nc1ncnc2c1c(-c1ccc(NC(=O)Nc3cccc(C(F)(F)F)c3)cc1)nn2CCCO [AD64] please.
> 5000 nM

Repeat with CC(C)n1nc(-c2ccc(NC(=O)Nc3cccc(C(F)(F)F)c3)cc2)c2c(N)ncnc21 [AD57]
< 1000 nM

Param item: Nc1ncnc2c1c(-c1ccc(NC(=O)c3cccc(C(F)(F)F)c3)cc1)nn2CCCO [AD65]
> 5000 nM
